biological target: hBChE from freshly collected human plasma (Homo sapiens); assay: Ex vivo anticholinesterase activity
Sequence (P06276 29-602): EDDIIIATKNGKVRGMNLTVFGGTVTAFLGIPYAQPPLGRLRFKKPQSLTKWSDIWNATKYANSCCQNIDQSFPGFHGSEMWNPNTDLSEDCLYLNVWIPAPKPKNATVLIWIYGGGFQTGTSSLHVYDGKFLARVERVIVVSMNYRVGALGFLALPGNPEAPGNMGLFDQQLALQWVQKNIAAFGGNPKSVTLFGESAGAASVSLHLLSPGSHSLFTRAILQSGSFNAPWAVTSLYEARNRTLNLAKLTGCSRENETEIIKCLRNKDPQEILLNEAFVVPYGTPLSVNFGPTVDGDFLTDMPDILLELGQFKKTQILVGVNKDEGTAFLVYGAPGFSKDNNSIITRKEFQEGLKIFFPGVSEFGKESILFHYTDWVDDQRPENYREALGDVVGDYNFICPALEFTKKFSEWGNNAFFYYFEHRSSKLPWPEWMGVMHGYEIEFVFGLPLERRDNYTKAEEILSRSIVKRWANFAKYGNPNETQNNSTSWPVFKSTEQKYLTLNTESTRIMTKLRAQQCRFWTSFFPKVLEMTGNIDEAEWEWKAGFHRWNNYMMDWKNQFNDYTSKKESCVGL
pIC50: −log10 of the molar value.
metric-name: pIC50

{"compound": "CN1CC[C@@]2(C)c3cc(OC(=O)Nc4ccccc4)ccc3N(C)[C@@H]12 [Phenserine, reference compound]", "metric-name": "pIC50", "reported-relation": "=", "test-value": 5.86}
{"compound": "CN1CC[C@]2(C)c3cc(OC(=O)Nc4ccccc4)ccc3N(C)[C@H]12", "metric-name": "pIC50", "reported-relation": "<", "test-value": 5.00}

src = paper PMC8845043
